# procedure text: chemical genetic growth profiling, strain panel (AID 1159580);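 note: tested at 20 µM; growth read once vehicle control cultures reached saturation at 30 °C; 1 = growth at the plate median or of vehicle wells; lower values mean less growth of the strain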
# reported conditions: S. cerevisiae deletion strains, growth OD, locus YKL101W, strain HSL1, hits give low values
The campaign covered roughly 5,500 compounds. About 2,000 (36%) were called active. Inconclusive results (about 18%) are left out. Some of the results follow.
compounds and their reported normalized growth
Respond numerically, and do not add a unit to the figure.

O=C1CSC(c2ccc(C(F)(F)F)cc2)N1c1ccc(C(F)(F)F)cc1 (stereo not given); 0.923

**Q:** Value lookup for normalized growth; key = N#Cc1ccc(NC(=O)Nc2cccc3ccccc23)cc1
**A:** 0.916

**Q:** Also O=C1/C(=C/c2ccc(C(F)(F)F)cc2)COc2ccccc21 ?
**A:** 0.906

**Q:** Also C/C(=N/Nc1ccccc1)c1cc(Cl)cc(Cl)c1O ?
**A:** 0.798

**Q:** Also CC1C/C(=N/Nc2ccc(Br)cc2)c2cc(Cl)ccc2S1(=O)=O (stereo not given) ?
**A:** 0.9

* * *

# procedure text: chemical genetic growth profiling, strain panel (AID 1159580)
# reported conditions: S. cerevisiae deletion strains, growth OD, locus YEL061C, strain CIN8 (second series), hits give low values
Out of some 5,500 compounds screened, about 2,000 (36%) were called active. About 18% were inconclusive and are not listed. Some of the results follow.
outcome measure: normalized growth
Respond numerically, and do not add a unit to the figure.

C[C@@H]1O[C@@H](O[C@H]2C[C@@H](O)[C@]3(CO)C4C(CC[C@]3(O)C2)[C@@]2(O)CC[C@H](C3=CC(=O)OC3)[C@@]2(C)C[C@H]4O)[C@H](O)[C@H](O)[C@H]1O (stereo partly drawn); 1.03
O=C(Nc1ccccc1)Nc1ccccc1; 0.97

**Q:** Value lookup for normalized growth; key = Nc1ccn(C2O[C@H](CO)[C@@H](O)[C@H]2O)c(=O)n1 (stereo partly drawn)
**A:** 0.983

**Q:** Also NC(N)=O ?
**A:** 1.01

**Q:** Also N[C@H](Cc1cc(I)c(Oc2ccc(O)c(I)c2)c(I)c1)C(=O)O ?
**A:** 1

**Q:** Also COc1ccc(C(=O)N2CCCC2=O)cc1 ?
**A:** 0.971

**Q:** Also O=[N+]([O-])c1cccc2c(Br)[nH]nc12 ?
**A:** 0.987

**Q:** Also CC(=O)Nc1ccccc1 ?
**A:** 0.962

**Q:** Also CC(=O)OCC(=O)[C@@]1(O)[C@H](OC(C)=O)CC2C3CCC4=CC(=O)C=C[C@]4(C)[C@@]3(F)[C@@H](O)C[C@@]21C (stereo partly drawn) ?
**A:** 0.973

**Q:** Also COc1c2ccccc2nc2occc12 ?
**A:** 0.976

**Q:** Also C/C=C/C(=O)N(CC)c1ccccc1C ?
**A:** 1.01

**Q:** Also CC(=O)N=c1sc(S(N)(=O)=O)nn1C ?
**A:** 1.01

**Q:** Also NC(Cc1ccc(F)cc1)C(=O)O (stereo not drawn) ?
**A:** 1.02

* * *

compounds and their reported normalized growth
# procedure text: chemical genetic growth profiling, strain panel (AID 1159580)
# reported conditions: S. cerevisiae deletion strains, growth OD, locus YJL187C, strain SWE1, hits give low values
Hit rate of the full screen: of about 5,500 compounds, about 2,000 (36%) were called active. Not shown: some 18% with an inconclusive outcome. Some of the results follow.
Respond numerically, and do not add a unit to the figure.

Illustrative cases are given below, each with its answer.
Cc1ccc(/C(N)=N\O)cc1F; 1.02
C[C@]12C=CC(=O)C=C1CCC1C3C[C@@H](O)[C@](O)(C(=O)CO)[C@@]3(C)C[C@H](O)[C@@]12F (some centres undefined); 0.982

**Q:** Value lookup for normalized growth; key = Cc1cc(NS(=O)(=O)c2ccc(NS(=O)(=O)c3ccc(Cl)cc3)cc2)no1
**A:** 1.01

**Q:** Also O=C(CSc1nnc(NC(=O)c2cccc([N+](=O)[O-])c2)s1)Nc1ccc2c(c1)OCO2 ?
**A:** 0.995

* * *

# procedure text: chemical genetic growth profiling, strain panel (AID 1159580);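 note: tested at 20 µM; growth read once vehicle control cultures reached saturation at 30 °C; 1 = growth at the plate median or of vehicle wells; lower values mean less growth of the strain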
# reported conditions: S. cerevisiae deletion strains, growth OD, locus YDR162C, strain NBP2, hits give low values
About 2,000 (36%) of roughly 5,500 compounds were called active. Inconclusive results (about 18%) are left out. Some of the results follow.
outcome measure: normalized growth
Respond numerically, and do not add a unit to the figure.

CC(=O)N=c1sc(S(N)(=O)=O)nn1C; 1.02
COC(=O)CCC(C)[C@H]1CCC2C3C(C[C@H](O)[C@@]21C)[C@@]1(C)CC[C@@H](O)C[C@H]1C[C@H]3O (stereo partly drawn); 1.02
CC(=O)O[C@H]1CC[C@]2(C)C3=CC(=O)[C@@]4(C)C(C[C@@H]5OC6(OCC(C)CC6Br)[C@@H](C)[C@@H]54)C3CC[C@H]2C1 (stereo partly drawn); 1.01
CCN(CCCc1ccccc1)CCCc1ccccc1; 1.01
NC(N)=NCCC[C@@H](NC(=O)[C@@H](N)Cc1ccc(O)cc1)C(=O)O; 1
CC(CCC(=O)O)[C@H]1CCC2C3C[C@H](O)[C@@H]4C[C@H](O)CC[C@]4(C)C3CC[C@@]21C (stereo partly drawn); 1.01
CC(=O)O[C@H]1CC[C@]2(C)C3C(=O)[C@@H](OC(C)=O)[C@@]4(C)C(C[C@@H]5O[C@]6(CCC(C)CO6)[C@@H](C)[C@@H]54)C3CC[C@H]2C1 (stereo partly drawn); 1.02
COC(=O)CCC(=O)O[C@H]1CCC2(C)C(CCC3C2C(=O)[C@@H](O)C2(C)C3CC3OC4(CCC(C)CO4)[C@@H](C)C32)C1 (stereo partly drawn); 1

**Q:** Value lookup for normalized growth; key = Cc1cc(=O)oc2c(O)c(O)ccc12
**A:** 1.02

**Q:** Also C[C@H](CCC(=O)O)[C@H]1CCC2C3C(CC[C@@]21C)[C@@]1(C)CC[C@@H](O)C[C@H]1C[C@@H]3O (stereo partly drawn) ?
**A:** 0.989

**Q:** Also O=C(O)c1ccccc1C(=O)Nc1ccc(S(=O)(=O)Nc2nccs2)cc1 ?
**A:** 1

**Q:** Also CC1CCC2(OC1)OC1CC3C4CCC5C[C@@H](O)CCC5(C)C4=CCC3(C)C1[C@@H]2C (stereo partly drawn) ?
**A:** 1.01

* * *

compounds and their reported normalized growth
# procedure text: chemical genetic growth profiling, strain panel (AID 1159580);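 note: tested at 20 µM; growth read once vehicle control cultures reached saturation at 30 °C; 1 = growth at the plate median or of vehicle wells; lower values mean less growth of the strain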
# reported conditions: S. cerevisiae deletion strains, growth OD, locus YBR231C, strain swc5, hits give low values
In all, about 5,500 compounds went through this assay and about 2,000 (36%) were called active. Inconclusive results (about 18%) are left out. This is one part of the list.
Respond numerically, and do not add a unit to the figure.

Illustrative cases are given below, each with its answer.
C[C@]12C=CC(=O)C=C1CCC1C3C[C@@H](O)[C@](O)(C(=O)CO)[C@@]3(C)C[C@H](O)[C@@]12F (stereo partly drawn); 1.01
CC(CCC(=O)O)[C@H]1CCC2C3CC[C@@H]4C[C@H](O)CC[C@]4(C)C3C[C@H](O)[C@@]21C (stereo partly drawn); 1.02

**Q:** Value lookup for normalized growth; key = CN(C)C(=O)Nc1ccc(Cl)c(Cl)c1
**A:** 1.01

**Q:** Also CN(C)CCC(c1ccc(Br)cc1)c1ccccn1 (stereo not drawn) ?
**A:** 0.983

**Q:** Also c1ccc2c(c1)CN1CCCC1=N2 ?
**A:** 0.997

**Q:** Also C[C@H](N)[C@H](O)c1cccc(O)c1 ?
**A:** 1

**Q:** Also COC(=O)CCC(C)C1CCC2C3CC[C@@H]4C[C@H](O)CC[C@]4(C)C3C[C@H](O)[C@]12C (stereo partly drawn) ?
**A:** 0.978

**Q:** Also NS(=O)(=O)c1cc2c(cc1Cl)NC(C1CC3C=CC1C3)NS2(=O)=O (stereo not drawn) ?
**A:** 0.989

* * *

compounds and their reported normalized growth
# procedure text: chemical genetic growth profiling, strain panel (AID 1159580);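 note: tested at 20 µM; growth read once vehicle control cultures reached saturation at 30 °C; 1 = growth at the plate median or of vehicle wells; lower values mean less growth of the strain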
# reported conditions: S. cerevisiae deletion strains, growth OD, locus YER155C, strain BEM2, hits give low values
The campaign covered roughly 5,500 compounds. About 2,000 (36%) were called active. Not shown: some 18% with an inconclusive outcome. This is one part of the list.
Respond numerically, and do not add a unit to the figure.

OC1=Cc2c(O)cc(O)cc2OC1(O)c1ccc(O)c(O)c1 (configuration not stated); 1.02
CCC(=O)Nc1ccc(Cl)c(Cl)c1; 1.01
C[C@H](N)[C@H](O)c1cccc(O)c1; 1.01
CN(C)C(=O)Nc1ccc(Cl)c(Cl)c1; 1.01
N[C@@H]1[C@@H](O)[C@H](O)[C@@H](CO)O[C@H]1O; 1
C[C@@H]1CC2C3C[C@H](F)C4=CC(=O)C=C[C@]4(C)[C@@]3(F)[C@@H](O)C[C@]2(C)[C@@]1(O)C(=O)COC(=O)C(C)(C)C (some centres not stated); 1.01

**Q:** Value lookup for normalized growth; key = Nc1ccncc1
**A:** 1.01
